B1: Chromodomain-helicase-DNA-binding protein 4, residues 444 to 496; numbered along this chain, Q14839 (parent)
chain: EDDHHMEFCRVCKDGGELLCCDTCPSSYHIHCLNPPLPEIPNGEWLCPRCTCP

Variants of: B1
Assay: abundance fitness (aPCA) (normalised: wild type 0, dead -1); higher = more abundant; growth selection in yeast, the domain comes from the species named
Details: Homo sapiens
reported.metric: abundance fitness

IN: Specify abundance fitness for P38I and stop.
OUT: -0.059

IN: Given the variant V11S , write its reported abundance fitness.
OUT: -0.159

IN: Give the measured abundance fitness for E1G
OUT: -0.289

IN: Return reported abundance fitness. Input variant: D22A
OUT: 0.032

IN: Find the measured abundance fitness of T23W and report it.
OUT: -0.2

IN: # return recorded abundance fitness for input C20N
OUT: 0.14

IN: Return abundance fitness for the following variant: T51Q
OUT: -0.03

IN: Please supply the value of reported abundance fitness for the item E44T
OUT: -0.122

IN: Please look at this variant and report its abundance fitness: C12Y
OUT: -0.557

IN: Provide measured abundance fitness value, entry: H31P
OUT: -0.354

IN: Return value of abundance fitness for input L33G , no commentary.
OUT: -0.598

IN: Tell us which abundance fitness value is on record for D14K
OUT: 0.074

IN: Answer with reported abundance fitness of H29E
OUT: -0.804

IN: Report abundance fitness, nothing else, for this variant: L18F
OUT: -0.581

IN: Please give measured abundance fitness of the following entry: H5N
OUT: -0.006

IN: Let me know recorded abundance fitness for S27Y , thanks.
OUT: 0.029

IN: Retrieve abundance fitness measured for Y28N and print it.
OUT: -0.528

IN: Identify measured abundance fitness associated with L18V
OUT: -0.117

IN: Please look at this variant and report its abundance fitness: G15K
OUT: 0.08

IN: Identify measured abundance fitness corresponding to R10P
OUT: -0.274

IN: In one line, give reported abundance fitness of the entry H4I .
OUT: 0.025

IN: Answer with the recorded abundance fitness for the variant listed here: F8K
OUT: -0.103

IN: Answer with the recorded abundance fitness of D14A only.
OUT: -0.068

IN: For H31Y , write its abundance fitness.
OUT: -0.097

IN: Give a short answer stating reported abundance fitness for H4M .
OUT: 0.107

IN: Specify abundance fitness for L33T and stop.
OUT: -0.361

IN: Using known records, supply abundance fitness for D22I
OUT: -0.399

IN: Return value of abundance fitness for input M6S , no commentary.
OUT: -0.147

IN: Give a short answer stating reported abundance fitness for F8R .
OUT: -0.033

IN: Item E7I : provide abundance fitness
OUT: -0.481

IN: Return the recorded abundance fitness value; entry: E1L
OUT: -0.235

IN: Give abundance fitness for C24W
OUT: -0.905

IN: Recall and state the measured abundance fitness for F8V .
OUT: 0.012

IN: Report abundance fitness, nothing else, for this variant: P53H
OUT: 0.616

IN: Give the reported value of abundance fitness for this record: H31Q
OUT: -0.042

IN: Please report the measured abundance fitness for L46Q
OUT: -0.019

IN: Give the reported abundance fitness for this variant. Y28C
OUT: -0.639

IN: Give abundance fitness for the following variant: E7Y
OUT: -0.813

IN: Determine its reported abundance fitness: P36S
OUT: -0.1

IN: Using the record for G43L , state its measured abundance fitness.
OUT: -0.201

IN: Complete the entry with abundance fitness for E1P
OUT: -0.436

IN: Please list abundance fitness recorded for the variant G16A
OUT: -0.558

IN: Retrieve abundance fitness measured for K13T and print it.
OUT: -0.134

IN: Quick one: give measured abundance fitness for F8D
OUT: -0.166

IN: In one line, give reported abundance fitness of the entry P41V .
OUT: -0.154

IN: Give the measured abundance fitness for C20A
OUT: 0.099

IN: Identify measured abundance fitness associated with C20Y
OUT: 0.066

IN: Entry H5L needs its abundance fitness filled in; supply it.
OUT: -0.305

IN: State its abundance fitness: S27N
OUT: -0.026

IN: Indicate its recorded abundance fitness; the variant in question is P35V
OUT: -0.399

IN: Give abundance fitness for the following variant: C32V
OUT: -0.914

IN: State its abundance fitness for this variant: F8T
OUT: -0.091

IN: In one line, give reported abundance fitness of the entry D22W .
OUT: -0.254

IN: Quote abundance fitness reported for S27V please.
OUT: -0.057

IN: Identify measured abundance fitness associated with C20L
OUT: 0.012

IN: Let me know recorded abundance fitness for I30G , thanks.
OUT: -0.115

IN: Quote abundance fitness reported for P48R please.
OUT: -0.352

IN: Output abundance fitness of K13E
OUT: 0.214

IN: Output measured abundance fitness for this item: C12T
OUT: -0.769

IN: Report abundance fitness for P48A
OUT: -0.155

IN: Please supply the value of reported abundance fitness for the item F8H
OUT: -0.249

IN: // Input: C24I . Output its abundance fitness only.
OUT: -0.706

IN: Return abundance fitness (reported value) for this variant: L18I
OUT: -0.357

IN: Answer with the recorded abundance fitness for the variant listed here: T51H
OUT: -0.169

IN: Supply abundance fitness value. Item: L19K
OUT: -0.033

IN: Dear colleague, please send me the reported abundance fitness for P35Y when you can.
OUT: -0.301

IN: Retrieve abundance fitness measured for I30N and print it.
OUT: -0.072

IN: Identify measured abundance fitness associated with N42D
OUT: -0.085

IN: Dear colleague, please send me the reported abundance fitness for M6G when you can.
OUT: -0.056

IN: Give the value of abundance fitness reported for the following: M6L
OUT: -0.665

IN: Complete the entry with abundance fitness for P35F
OUT: -0.45

IN: For the variant C50S , give its reported abundance fitness.
OUT: -0.622

IN: Dear colleague, please send me the reported abundance fitness for G15T when you can.
OUT: 0.012

IN: Consider the variant N42G and give its recorded abundance fitness.
OUT: 0.038

IN: Indicate the recorded abundance fitness value for this variant: C50D
OUT: -0.633

IN: Fill in reported abundance fitness for this entry: V11A
OUT: -0.316

IN: Input C24V , output reported abundance fitness.
OUT: -0.617

IN: Query abundance fitness for I40T
OUT: -0.005

IN: For the variant P41N , report abundance fitness.
OUT: 0.029

IN: Answer with the recorded abundance fitness for the variant listed here: D2F
OUT: 0.463

IN: Name the recorded abundance fitness of the variant listed here: P36M
OUT: -0.274

IN: Give the reported abundance fitness for this variant. T23M
OUT: -0.077

IN: Answer with the recorded abundance fitness for the variant listed here: C47S
OUT: -0.598

IN: Provide one value: measured abundance fitness of C9Y
OUT: -0.979

Just for reference, the Human Domainome abundance scans (Beltran et al. 2025) is where these values come from.
